Hi there, I'd appreciate the recorded gcPBM binding intensity (ln) for every entry that follows.
tested on: PfAP2-EXP AP2 domain (GST-tagged); experiment: gcPBM binding intensity (ln(normalized median fluorescence intensity)); higher = stronger DNA binding
The full ranking holds about 25,000 sequences; the median of “ln(normalized median fluorescence intensity)” is about 8.6, and the highest 2% start at about 10. The list comes from a sample in which the highest values are over-represented; it also holds close analogues and randomly drawn sequences.
Give bare numbers.

Some sequences with known gcPBM binding intensity (ln) results, for comparison:
{"columns": ["sequence-chain", "gcPBM binding intensity (ln)"],
 "data": [
  ["ATATTTTATTATTGTTGTACTTTTTTTTGATTGTTT [XGTACX_site4090]", 8.81],
  ["TATATAAATATATATACACACAAAAAAAAAAAAAAA [CACACA_site1406]", 8.36],
  ["TATTTTTTCTTAAACACACACATATATATATATAAT [CACACA_site5567]", 8.56]
]}

Parameters: items (list). Returns: gcPBM binding intensity (ln) for each item.
1. TTCAAATATAAATACACACACATAGCTACAAAATAA [CACACA_site4172]
2. TTATTATATTAAAAGAGGACACATTTATTTTTTTTT [XGTACX_site1241]
3. CTACATAAAAAAATATGTACATATATATATATATAT [XGTACX_site667]
4. TACATGCATTTCTCATGTACATAATTTTCCCATATT [XGTACX_site5158]
5. GTATAATAAATGATAGCACACATATGTACTTATATA [CACACA_site8188]
6. TTATTATATAAAATAAATAACAAAAAAAATAAAATA [GTGCAC_negctrl_site548]

Outgoing:
1. 8.95
2. 8.09
3. 10
4. 8.81
5. 8.57
6. 8.45

For the 8 sequences below, give their gcPBM binding intensity (ln) values.
1. AAATTGTGTTCATCAGCACACACAACATCATGTAAT [CACACA_site8556]
2. ATTTATCTATAATATACACACATATAACAGACATAT [CACACA_site6469]
3. TAGATACATACACGCACACACATATATAAATAAATA [CACACA_site6157]
4. TATTTTAAAAAAAAAAGTACACATAATATATATAAC [XGTACX_site5416]
5. ATAAATATATATATAGTGCATATAAGCCACCTTCAA [GTGCAC_site9628]
6. TCTTTTAAACAGTACACACACACATCTATATTTATA [CACACA_site6559]
7. TGTTCTAATTTTAATTGTACATATATACATATATAT [XGTACX_site7290]
8. TATATATTTATATATGCATGTACATTTTTATTTATT [TGCATGCA_site1048]

Outgoing:
1. 8.51
2. 8.52
3. 8.69
4. 8.64
5. 8.86
6. 8.76
7. 8.46
8. 8.82

I have 8 sequences here; please give me gcPBM binding intensity (ln) for each one.
1. ATATATTTAATATTCACACATAATTATTTTTACTCT [CACACA_site5438]
2. ATTCGTCACATTTTTTGATATATATATATATATATA [CACACA_negctrl_site1785]
3. CATATATAGATATATACACACATACATACATACATA [CACACA_site7748]
4. TTTTCTTTTAAACATATATATATATATATATATATA [XGTACX_negctrl_site559]
5. AAAAAAAAAAAAAAAAGTACAAAAAAAAAAAAAAAA [XGTACX_site4549]
6. TAAGTTTTGTTCTTTTGTACATATAAGTATAGATCG [XGTACX_site4735]
7. ATTATATTATTTTAAAGTACACACATATATTAATAT [XGTACX_site4769]
8. AAAAAATAAATAAATACACACAAATATATATATATA [CACACA_site2543]

Outgoing:
[8.59, 10.4, 8.55, 10.4, 8.26, 8.48, 8.63, 10.2]

Batch request: gcPBM binding intensity (ln) for each of the following sequences.
1. TTAAAACCAAAACACAGTACATATATATATATATAT [XGTACX_site5668]
2. TATATCTGTATCATTACACACATGTATACTTATTTG [CACACA_site6134]

Outgoing:
1: 10.3; 2: 8.74

// input: 6 sequences below; output: gcPBM binding intensity (ln) for each
1. TTAAAAAAATAATTAACACACACATGTATATCTATA [CACACA_site9026]
2. TTTTTTTTTTTTTTTTGTACATATACATATATATAT [XGTACX_site1981]
3. TATATATATAAATACACACACACAAAAAAAAAAAAA [CACACA_site4930]
4. GTATATATTTTGTATTCATTTGTCACATATAATAGA [CACACA_negctrl_site506]
5. TAAACATAAATATACACACAAACATATATGTATTTT [CACACA_site1214]
6. ATAGATATACATATCACACATATATATATATATATA [CACACA_site4985]

Outgoing:
1. 8.21
2. 9.3
3. 8.6
4. 8.69
5. 8.51
6. 10.2

Would you mind listing gcPBM binding intensity (ln) for each of the following sequences?
1. GTACACATATAGTAATAATTTTATTATATTTTTTTG [CACACA_negctrl_site843]
2. TGTGCACGCATATACACACACAAATACAATGATAAA [CACACA_site6656]
3. TTAATCCTTTTTAAAAGTACACATATATATATATAT [XGTACX_site962]

Outgoing:
1: 8.46; 2: 8.65; 3: 10.2

Each sequence below has a recorded value; state its gcPBM binding intensity (ln).
1. TATATATATATATATACATGCATTTCTCATGTACAT [TGCATGCA_site621]
2. ATACATATATATATATGTACATATGTATTTTTTATT [XGTACX_site105]

Outgoing:
10.2
8.63

* * *

Provide the recorded gcPBM binding intensity (ln) for the entries that follow.
tested on: PfAP2-EXP AP2 domain (GST-tagged); experiment: gcPBM binding intensity (ln(normalized median fluorescence intensity)); higher = stronger DNA binding
The full ranking holds about 25,000 sequences; the median of “ln(normalized median fluorescence intensity)” is about 8.6, and the highest 2% start at about 10. The sample as a whole holds a higher share of the highest values than the screen did.

These recorded examples may help you get a feel for the data.
{"columns": ["sequence-chain", "val"],
 "data": [
  ["AAAAATATATAAGAGAGTACATAAAATAAATTAATT [XGTACX_site1534]", 8.61],
  ["TACATACATAAACACACACACACATATATATATATA [CACACA_site8953]", 10.1],
  ["AAAAAAAAAAAACATACACACATACATACAGATATA [CACACA_site4681]", 8.5],
  ["TTATATAAATATAAGGTGCTGGGGTTTATTACATAT [GTGCAC_site9909]", 9.03]
]}

Would you mind giving gcPBM binding intensity (ln) for every sequence in the list below?
1. TACATATATAAAAAAACACACACATATATATATATA [CACACA_site8315]
2. AAAAAAAAAAAAAAAAGTACATATATTATATATATA [XGTACX_site2983]
3. TTAATATATTTTAAAAGTACATAATATTATTTTTTA [XGTACX_site3642]
4. TATATATTATAAAAGAGTACAGAAAGAAAAAAAAAT [XGTACX_site8305]
5. TATATATATATATATAGTACATATTTATATATGAAA [XGTACX_site8488]

Outgoing:
1. 10.1
2. 8.9
3. 8.04
4. 9.12
5. 10.1

* * *

system: PfAP2-EXP AP2 domain (GST-tagged); assay: gcPBM binding intensity (ln(normalized median fluorescence intensity)); higher = stronger DNA binding
Over roughly 25,000 sequences, “ln(normalized median fluorescence intensity)” has its median near 8.6; the highest 2% begin near 10. The sample as a whole holds a higher share of the highest values than the screen did.
metric-name: gcPBM binding intensity (ln)
One number for each entry.

Some entries whose results are on file:
{"columns": ["sequence-chain", "gcPBM binding intensity (ln)"],
 "data": [
  ["TTTAATAAATAAATAAATAAAATATATTAAAAACCA [CACACA_negctrl_site80]", 8.38],
  ["AAAAAAACACACACATATATATATATATATATATAT [GTGCAC_negctrl_site498]", 10.2],
  ["TTACATACAATTGGTGTGCACATATATATATATATA", 10.3]
]}

Lab note: each sequence below needs its gcPBM binding intensity (ln) filled in.
1. AAACAAAAAAAATAAGCACACATATATATATATATA [CACACA_site8173]
2. CCACTATATAAAATCACACATTTATATTATACATAT [CACACA_site4570]
3. ATTATGTGCCAATACACACACACATATATATATATA [CACACA_site468]
4. AAAACATACATATATACACACATATATATATATATA [CACACA_site1852]

Outgoing:
[10.1, 8.43, 9.91, 10.2]

Please give gcPBM binding intensity (ln), item by item, for the list that follows.
1. TATAAGCAAAAACACACACACATATATATATATATA [CACACA_site3804]
2. AAAAAAAAAAAACATACACACACATATATATATATA [CACACA_site8452]

Outgoing:
[10.3, 10]
